Provenance of the data: patent US9926282B2

This section presents compounds with their documented IC50 values.
# study target: UniProtKB O75116
# Sequence (O75116 whole entry, species assumed): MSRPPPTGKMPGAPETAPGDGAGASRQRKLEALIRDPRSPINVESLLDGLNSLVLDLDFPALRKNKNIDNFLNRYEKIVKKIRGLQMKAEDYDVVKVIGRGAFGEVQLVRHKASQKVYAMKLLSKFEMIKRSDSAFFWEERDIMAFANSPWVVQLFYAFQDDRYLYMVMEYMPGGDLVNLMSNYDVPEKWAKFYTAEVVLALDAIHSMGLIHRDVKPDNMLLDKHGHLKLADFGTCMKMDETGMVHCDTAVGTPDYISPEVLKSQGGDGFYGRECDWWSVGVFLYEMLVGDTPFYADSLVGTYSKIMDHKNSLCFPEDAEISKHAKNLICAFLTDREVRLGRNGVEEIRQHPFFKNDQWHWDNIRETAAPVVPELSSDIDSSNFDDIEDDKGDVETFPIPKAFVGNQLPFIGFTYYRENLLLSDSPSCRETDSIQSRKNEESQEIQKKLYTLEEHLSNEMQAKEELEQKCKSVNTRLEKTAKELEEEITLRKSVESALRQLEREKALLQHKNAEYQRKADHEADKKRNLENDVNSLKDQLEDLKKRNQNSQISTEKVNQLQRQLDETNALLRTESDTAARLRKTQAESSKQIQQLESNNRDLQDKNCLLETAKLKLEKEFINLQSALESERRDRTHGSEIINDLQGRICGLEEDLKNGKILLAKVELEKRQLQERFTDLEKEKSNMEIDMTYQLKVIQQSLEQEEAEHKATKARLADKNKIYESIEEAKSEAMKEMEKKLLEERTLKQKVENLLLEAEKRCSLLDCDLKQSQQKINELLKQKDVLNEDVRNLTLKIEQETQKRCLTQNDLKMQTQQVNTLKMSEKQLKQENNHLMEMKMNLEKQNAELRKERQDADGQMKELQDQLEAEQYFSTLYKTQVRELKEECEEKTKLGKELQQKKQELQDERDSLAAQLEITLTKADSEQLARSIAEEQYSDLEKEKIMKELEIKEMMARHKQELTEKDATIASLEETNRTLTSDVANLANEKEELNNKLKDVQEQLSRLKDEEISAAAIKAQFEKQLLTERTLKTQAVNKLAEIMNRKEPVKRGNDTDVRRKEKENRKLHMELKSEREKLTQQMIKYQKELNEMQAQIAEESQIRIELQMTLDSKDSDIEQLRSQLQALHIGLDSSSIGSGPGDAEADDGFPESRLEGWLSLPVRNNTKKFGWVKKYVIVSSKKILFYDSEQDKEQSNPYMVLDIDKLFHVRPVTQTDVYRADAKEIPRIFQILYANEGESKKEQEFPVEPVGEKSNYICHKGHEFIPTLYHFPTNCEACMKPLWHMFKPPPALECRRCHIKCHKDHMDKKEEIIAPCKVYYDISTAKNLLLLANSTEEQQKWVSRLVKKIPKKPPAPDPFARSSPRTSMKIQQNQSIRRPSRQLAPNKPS
# experiment summary: ROCK assay (LABCHIP peptide phosphorylation), ROCK2
# Type: biochemical
# run conditions: 5 μM ATP, 1.5 μM peptide substrate
readout name: IC50

compound: O=C(Nc1ccc(-c2n[nH]c(=O)c3ccccc23)cc1)c1cnn(C2CCNC2)c1 (centres unmarked) [Example 397]
study target: UniProtKB O75116
result: 101 to 1000 nM
--
compound: O=C(Nc1ccc(-c2n[nH]c(=O)c3ccccc23)cc1)C1Cc2ccccc2C1 [Example 44]
study target: UniProtKB O75116
result: 0.1 to 100 nM
--
compound: Cc1cn2cc(C(=O)Nc3ccc(-c4n[nH]c(=O)c5ccccc45)cc3)nc2cn1 [Example 121]
study target: UniProtKB O75116
result: 0.1 to 100 nM
--
compound: COCC(O)COc1ccn2ncc(C(=O)Nc3ccc(-c4n[nH]c(=O)c5ccccc45)cc3)c2c1 (centres unmarked) [Example 194]
study target: UniProtKB O75116
result: 0.1 to 100 nM
--
compound: CCOc1cc(NC(=O)c2nn(CC(C)(C)O)c3ccccc23)ccc1-c1n[nH]c(=O)c2ccccc12 [Example 346]
study target: UniProtKB O75116
result: 101 to 1000 nM
--
compound: CN(C)CCOc1ccc2c(C(=O)Nc3ccc(-c4n[nH]c(=O)c5ccccc45)cc3)cnn2c1 [Example 177]
study target: UniProtKB O75116
result: 0.1 to 100 nM
--
compound: COc1cc2c(-c3ccc(CC(=O)N4Cc5ccccc5C4)cc3)c[nH]c(=O)c2cc1OC [Example 255]
study target: UniProtKB O75116
result: 101 to 1000 nM
--
compound: O=C(Cc1ccc(-c2n[nH]c(=O)c3ccccc23)cc1)N1CCc2ccc(OCc3ccccc3)cc21 [Example 83]
study target: UniProtKB O75116
result: 0.1 to 100 nM

====

# study target: ROCK1 (Homo sapiens (Human), UniProt Q13464)
# Sequence (Q13464 whole entry, species assumed): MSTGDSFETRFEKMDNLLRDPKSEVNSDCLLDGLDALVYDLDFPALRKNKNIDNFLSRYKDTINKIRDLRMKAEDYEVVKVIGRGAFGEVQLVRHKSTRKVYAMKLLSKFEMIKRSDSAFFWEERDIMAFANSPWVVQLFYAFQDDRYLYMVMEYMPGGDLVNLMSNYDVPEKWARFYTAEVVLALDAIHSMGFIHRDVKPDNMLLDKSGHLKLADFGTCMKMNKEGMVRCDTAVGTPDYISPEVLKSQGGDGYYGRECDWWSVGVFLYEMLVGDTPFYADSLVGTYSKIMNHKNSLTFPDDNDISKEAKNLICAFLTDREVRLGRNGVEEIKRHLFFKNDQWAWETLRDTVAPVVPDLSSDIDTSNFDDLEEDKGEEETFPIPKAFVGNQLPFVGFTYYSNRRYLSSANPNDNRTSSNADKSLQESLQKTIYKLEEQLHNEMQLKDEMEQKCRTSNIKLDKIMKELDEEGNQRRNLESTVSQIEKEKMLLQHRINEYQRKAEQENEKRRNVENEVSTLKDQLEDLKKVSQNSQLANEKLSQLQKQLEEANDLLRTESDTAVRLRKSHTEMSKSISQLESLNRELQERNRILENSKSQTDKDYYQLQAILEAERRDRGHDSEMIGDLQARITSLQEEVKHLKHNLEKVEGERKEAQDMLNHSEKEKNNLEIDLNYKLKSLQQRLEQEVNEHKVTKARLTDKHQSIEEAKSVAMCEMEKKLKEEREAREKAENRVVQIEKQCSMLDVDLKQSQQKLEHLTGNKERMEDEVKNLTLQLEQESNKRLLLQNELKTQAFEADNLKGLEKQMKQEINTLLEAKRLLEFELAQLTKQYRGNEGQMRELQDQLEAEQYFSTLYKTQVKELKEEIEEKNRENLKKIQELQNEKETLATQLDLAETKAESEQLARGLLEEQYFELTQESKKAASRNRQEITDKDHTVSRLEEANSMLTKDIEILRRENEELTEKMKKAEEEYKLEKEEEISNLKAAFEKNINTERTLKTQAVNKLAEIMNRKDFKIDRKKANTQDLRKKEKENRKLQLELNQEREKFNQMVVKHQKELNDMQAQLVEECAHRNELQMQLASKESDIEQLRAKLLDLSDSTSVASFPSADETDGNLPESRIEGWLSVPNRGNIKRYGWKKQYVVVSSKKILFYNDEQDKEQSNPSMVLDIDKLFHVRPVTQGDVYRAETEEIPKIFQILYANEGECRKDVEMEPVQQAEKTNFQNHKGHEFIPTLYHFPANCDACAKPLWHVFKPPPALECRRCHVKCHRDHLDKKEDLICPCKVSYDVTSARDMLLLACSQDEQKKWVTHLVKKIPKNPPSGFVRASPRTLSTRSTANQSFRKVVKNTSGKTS
# experiment summary: ROCK assay (LABCHIP peptide phosphorylation), ROCK1
# Assay type: biochemical
# run conditions: 5 μM ATP, 1.5 μM peptide substrate; read-out: ROCK1 IC50
Structures can show the parent of a compound that is named as a salt.

compound: Cc1cc(NC(=O)c2cnn3cc(OCCN4CCCC4)ccc23)ccc1-c1n[nH]c(=O)c2ccccc12
study target: ROCK1 (Homo sapiens (Human), UniProt Q13464)
IC50: 101 to 1000 nM

compound: O=C(c1ccc2c(c1)N(C(=O)Cc1ccc(-c3n[nH]c(=O)c4ccccc34)cc1)CC2)N1CCC(O)CC1
study target: ROCK1 (Homo sapiens (Human), UniProt Q13464)
IC50: 101 to 1000 nM

compound: O=C(Nc1ccc(-c2n[nH]c(=O)c3ccccc23)cc1)c1cnn(C2CCS(=O)(=O)C2)c1 (stereo not shown) [Example 396, TFA]
study target: ROCK1 (Homo sapiens (Human), UniProt Q13464)
IC50: 101 to 1000 nM

compound: Cc1cc(NC(=O)c2nn(CC3(C)COC3)c3ccccc23)ccc1-c1n[nH]c(=O)c2ccccc12
study target: ROCK1 (Homo sapiens (Human), UniProt Q13464)
IC50: 0.1 to 100 nM

compound: CC(C)c1c(C(=O)Nc2ccc(-c3n[nH]c(=O)c4ccccc34)cc2)cn2nc[nH]c(=O)c12
study target: ROCK1 (Homo sapiens (Human), UniProt Q13464)
IC50: 101 to 1000 nM

compound: O=C(Cc1ccc(-c2n[nH]c(=O)c3ccccc23)cc1)N1CCc2ccc(OCc3ccncc3)cc21
study target: ROCK1 (Homo sapiens (Human), UniProt Q13464)
IC50: 0.1 to 100 nM

compound: O=C(Nc1ccc(-c2n[nH]c(=O)c3ccccc23)cc1)c1nn(CC2CCN(C(=O)OCCF)CC2)c2ccccc12
study target: ROCK1 (Homo sapiens (Human), UniProt Q13464)
IC50: 0.1 to 100 nM
